Would you mind telling me the reported % remaining, SGF of each entry?
Test Method Notes: Stability of compounds in simulated gastric fluid (SGF)
Type: in vitro ADME
Condition Parameters: simulated gastric fluid (3 mg/mL pepsin), incubation time 6 hr, relative to t=0

Check out these entries, answers already filled in.
COCCNC(=O)[C@H]1CCCN(C(=O)c2cccc(C(=O)Nc3ccc(N4CCCCC4)cc3-c3cc(C(=O)N[C@H]4CCCc5ccccc54)ccn3)c2)C1 ... >80%
CCN(CC)c1ccc(NC(=O)c2cccc(Cn3ccc4c(C(=O)NCCOCCOCCOCCC(=O)O)cccc43)c2)c(-c2cc(C(=O)N[C@H]3CCCc4ccccc43)ccn2)c1 ... >80%

// next entry
I would be grateful if you could share the reported % remaining, SGF for CCN(CC)c1ccc(NC(=O)c2cccc(C(=O)N(C)CCN3CCOCC3)c2)c(-c2cc(C(=O)N[C@H]3CCCc4ccccc43)ccn2)c1 .
>80%

###

Study System: rat NaP2b (SLC34A2) (Rattus norvegicus, UniProt Q9JJ09)
Construct: host or cells: HEK293
Test Method Notes: Inhibition of NaP2b-mediated Pi (33P) uptake in transfected HEK293 cells, rat NaP2b
Assay type: cell-based
Condition Parameters: 33P Pi uptake, 0.1 mM phosphate, value given as pIC50 range
Observed Property: IC50

Check out these entries, answers already filled in.
CCN(CC)c1ccc(NC(=O)c2cccc(COCCOCCOCCOCCOCCOCCOC(=O)N(CCO)CCO)c2)c(-c2cc(C(=O)NCc3cccc(C(F)(F)F)c3)ccn2)c1 ... 1 to 7.94 µM
CC(=O)N1CCN(CCN(C)Cc2cccc(C(=O)Nc3ccc(N4CCCCC4)cc3-c3cc(C(=O)NCc4cccc(C(F)(F)F)c4)ccn3)n2)CC1 ... 10 to 31.6 µM
CCN(CC)c1ccc(NC(=O)c2cccc(CCCOCCOCCOCCOCCNS(=O)(=O)c3ccc(C(=O)N(C)CCOCCOCCOCCOCCOCCOCCOC)cc3)c2)c(-c2cc(C(=O)NCc3cccc(C(F)(F)F)c3)ccn2)c1 ... 1 to 7.94 µM
CC(C)CNC(=O)c1ccnc(-c2cc(N3CCCCC3)ccc2NC(=O)c2cccc(CSCCC(=O)O)c2)c1 ... 10 to 31.6 µM

Quick request: IC50 for each listed item, please.
1. CN(CCOCCOCCOCCC(=O)O)Cc1cccc(C(=O)Nc2ccc(N3CCCCC3)cc2-c2cc(C(=O)NCc3cccc(C(F)(F)F)c3)ccn2)c1
2. CCN(CC)c1ccc(NC(=O)c2cccc(CCCOCCOCCOCCOCCOCC(CO)(CO)CO)c2)c(-c2cc(C(=O)NCc3cccc(C(F)(F)F)c3)ccn2)c1
3. CN1CCN(CCN(C)Cc2cccc(C(=O)Nc3ccc(N4CCCCC4)cc3-c3cc(C(=O)NCc4cccc(C(F)(F)F)c4)ccn3)n2)CC1
4. CN(C)c1ccc(NC(=O)c2cccc(CSCCC(=O)O)c2)c(-c2cc(C(=O)NCc3cccc(C(F)(F)F)c3)ccn2)c1

1: 10 to 31.6 µM; 2: < 1 µM; 3: 10 to 31.6 µM; 4: 1 to 7.94 µM

###

Study System: rat NaP2b (SLC34A2) (Rattus norvegicus, UniProt Q9JJ09)
Construct: host or cells: HEK293
Sequence (Q9JJ09 1-695): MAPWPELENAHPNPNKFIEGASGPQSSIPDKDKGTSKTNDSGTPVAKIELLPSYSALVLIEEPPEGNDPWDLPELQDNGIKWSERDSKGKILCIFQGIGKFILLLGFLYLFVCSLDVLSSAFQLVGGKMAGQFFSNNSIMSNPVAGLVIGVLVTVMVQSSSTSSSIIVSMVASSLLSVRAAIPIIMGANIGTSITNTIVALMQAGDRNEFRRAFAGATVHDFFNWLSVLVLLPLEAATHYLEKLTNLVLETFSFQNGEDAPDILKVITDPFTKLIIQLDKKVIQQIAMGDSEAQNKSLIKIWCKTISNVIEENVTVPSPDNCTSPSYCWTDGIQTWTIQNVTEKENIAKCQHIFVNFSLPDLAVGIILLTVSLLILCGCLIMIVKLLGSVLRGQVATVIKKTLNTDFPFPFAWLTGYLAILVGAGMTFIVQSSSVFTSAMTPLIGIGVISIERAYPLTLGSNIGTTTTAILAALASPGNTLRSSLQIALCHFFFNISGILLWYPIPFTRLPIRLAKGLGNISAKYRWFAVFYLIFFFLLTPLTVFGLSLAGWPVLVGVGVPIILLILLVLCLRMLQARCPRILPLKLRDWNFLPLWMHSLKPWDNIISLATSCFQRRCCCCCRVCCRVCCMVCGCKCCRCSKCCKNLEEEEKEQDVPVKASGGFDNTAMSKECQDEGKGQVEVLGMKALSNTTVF
Test Method Notes: Inhibition of NaP2b-mediated Pi (33P) uptake in transfected HEK293 cells, rat NaP2b
Type: cell-based
Condition Parameters: 33P Pi uptake, 0.1 mM phosphate, value given as pIC50 range
Would you mind telling me the reported IC50 of each entry?

CN(CCO)CCN(C)C(=O)c1cccc(C(=O)Nc2ccc(N3CCCCC3)cc2-c2cc(C(=O)NCc3cccc(C(F)(F)F)c3)ccn2)c1 ... 1 to 7.94 µM

Quick request: IC50 for each listed item, please.
1. O=C(O)CCCC1CCN(C(=O)CCCC2CCN(C(=O)c3cccc(C(=O)Nc4ccc(N5CCCCC5)cc4-c4cc(C(=O)NCc5cccc(C(F)(F)F)c5)ccn4)c3)CC2)CC1
2. O=C(NCCOCCO)c1cccc(C(=O)Nc2ccc(Cl)cc2-c2cc(NCc3cccc(C(F)(F)F)c3)ncn2)c1
3. CCN(CC)c1ccc(NC(=O)c2cccc(C#CCOCCOCCOCCOCCO)c2)c(-c2cc(C(=O)NCc3cccc(C(F)(F)F)c3)ccn2)c1

["1 to 7.94 µM", "10 to 31.6 µM", "1 to 7.94 µM"]

Quick request: IC50 for each listed item, please.
1. CCN(CC)c1ccc(NC(=O)c2cccc(CCCOCCOCCOCCOCCC(=O)N(C)CCOCCOCCOCCOCCOCCOCCOC)c2)c(-c2cc(C(=O)N[C@H]3CCCc4ccccc43)ccn2)c1
2. O=C(NCc1cccc(C(F)(F)F)c1)c1ccnc(-c2cc(N3CCCCC3)ccc2NC(=O)c2cccc(CSCCO)c2)c1

["< 1 µM", "1 to 7.94 µM"]

###

Study System: rat NaP2b (SLC34A2) (Rattus norvegicus, UniProt Q9JJ09)
Construct: host or cells: HEK293
Test Method Notes: Inhibition of NaP2b-mediated Pi (33P) uptake in transfected HEK293 cells, rat NaP2b
Type: cell-based
Condition Parameters: 33P Pi uptake, 0.1 mM phosphate, value given as pIC50 range
Experimental: HEK293 cells were obtained from the American Type Culture collection and propagated per their instructions. […] The sequence of the human protein was mutated to insert a threonine after residue 37, and to introduce a N39D mutation. […] Cells were lysed by addition of 20 μL 0.1% Tween 80 followed by 100 μL scintillation fluid, and counted using a TopCount (Perkin Elmer). pIC50 (the negative log of the IC50) values of the test compounds were calculated using GraphPad Prism.
pIC50: −log10 of the molar value.
Observed Property: pIC50

O=C(O)CCSCc1cccc(C(=O)Nc2ccc(N3CCCCC3)cc2-c2cc(C(=O)NCc3ccc(N4CCOCC4)cc3)ccn2)c1 [Example 78] ... 4.50 to 5.00
CN(CCN1CCOCC1)C(=O)c1cccc(C(=O)Nc2ccc(N3CCC(C)(C)CC3)cc2-c2cc(C(=O)NCc3cccc(C(F)(F)F)c3)ccn2)c1 [Example 108] ... 4.50 to 5.00
CCN(CC)c1ccc(NC(=O)c2cccc(CCCOCCOCCOCCOCCC(=O)N3CCN(S(=O)(=O)c4ccc(C)cc4)CC3)c2)c(-c2cc(C(=O)NCc3cccc(C(F)(F)F)c3)ccn2)c1 [Example 291] ... 5.10 to 6.00

Quick request: pIC50 for each listed item, please.
1. COCCOCCOCCOCCOCCOCCOCCN(C)C(=O)C1CCN(CCN(C)C(=O)c2cccc(C(=O)Nc3ccc(N4CCCCC4)cc3-c3cc(C(=O)N[C@H]4CCCc5ccccc54)ccn3)c2)CC1 [Example 334]
2. O=C(O)CCOCCOCCOCCNC(=O)CCOCCOCCOCCOCCSCc1cccc(C(=O)Nc2ccc(N3CCCCC3)cc2-c2cc(C(=O)NCc3cccc(C(F)(F)F)c3)ccn2)c1 [Example 155]

4.50 to 5.00
4.50 to 5.00

###

Study System: rat NaP2b (SLC34A2) (Rattus norvegicus, UniProt Q9JJ09)
Construct: host or cells: HEK293
Sequence (Q9JJ09 1-695): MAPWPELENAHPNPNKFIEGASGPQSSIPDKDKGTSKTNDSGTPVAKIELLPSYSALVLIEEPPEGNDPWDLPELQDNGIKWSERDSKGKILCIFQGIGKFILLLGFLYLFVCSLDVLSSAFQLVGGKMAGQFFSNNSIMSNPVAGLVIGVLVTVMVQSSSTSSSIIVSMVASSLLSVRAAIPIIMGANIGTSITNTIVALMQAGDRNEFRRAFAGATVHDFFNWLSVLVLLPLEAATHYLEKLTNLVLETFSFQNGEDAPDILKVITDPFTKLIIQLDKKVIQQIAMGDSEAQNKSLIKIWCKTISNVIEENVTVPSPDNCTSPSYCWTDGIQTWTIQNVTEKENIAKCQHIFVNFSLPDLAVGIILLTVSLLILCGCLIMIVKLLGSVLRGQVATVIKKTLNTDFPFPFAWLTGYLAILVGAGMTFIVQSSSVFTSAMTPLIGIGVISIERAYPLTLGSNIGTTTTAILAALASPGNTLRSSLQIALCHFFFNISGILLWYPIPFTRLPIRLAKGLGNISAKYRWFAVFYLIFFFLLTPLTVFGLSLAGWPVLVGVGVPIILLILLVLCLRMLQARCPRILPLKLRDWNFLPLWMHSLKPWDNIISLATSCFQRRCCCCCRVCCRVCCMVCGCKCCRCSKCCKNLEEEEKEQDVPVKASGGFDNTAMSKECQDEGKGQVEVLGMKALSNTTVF
Test Method Notes: Inhibition of NaP2b-mediated Pi (33P) uptake in transfected HEK293 cells, rat NaP2b
Type: cell-based
Condition Parameters: 33P Pi uptake, 0.1 mM phosphate, value given as pIC50 range
Would you mind telling me the reported IC50 of each entry?

CN(CCN1CCOC[C@H]1C(=O)N(C)CCOCCOCCOCCC(=O)OC(C)(C)C)C(=O)c1cccc(C(=O)Nc2ccc(N3CCCCC3)cc2-c2cc(C(=O)N[C@H]3CCCc4ccccc43)ccn2)c1 ... < 1000 nM

Quick request: IC50 for each listed item, please.
1. COCCN(CCOC)CCN(C)C(=O)c1cccc(C(=O)Nc2ccc(N3CCCCC3)cc2-c2cc(C(=O)N[C@H]3CCCc4ccccc43)ccn2)c1
2. CN(CCOCCOCCOCCC(=O)N1CCN(CCOCCO)CC1)C(=O)c1cccc(C(=O)Nc2ccc(N3CCCCC3)cc2-c2cc(C(=O)N[C@H]3CCCc4ccccc43)ccn2)c1

1. < 1000 nM
2. 1000 to 7940 nM
